Assignment: determine reported anti-ovulatory activity: rats ovulating out of rats treated for the given compounds.
# Test system: ovulation in mature female Sprague-Dawley rats
# Protocol: standard in vivo rat anti-ovulation test
# Measurement context: dosage 1 μg, injected in bacteriostatic water at about noon on the day of proestrus
# Method: The betide is assayed in vivo to determine its effectiveness to prevent ovulation in female rats. Inthis test, a specified number of mature female Sprague-Dawley rats, e.g. five to ten, each having a body weight from 225 to 250 grams, are injected with a specified microgram dosage of the betide in bacteriostatic water at about noon on the day of proestrus. […] Each of the control female rats ovulates on the evening of proestrus; the number of the rats treated which ovulate is recorded.

State its anti-ovulatory activity: rats ovulating out of rats treated: CC(=O)Nc1ccc(C[C@H](NC(=O)[C@H](CO)NC(=O)[C@@H](Cc2cccnc2)NC(=O)[C@@H](Cc2ccc(Cl)cc2)NC(=O)C(NC(C)=O)NC(=O)c2ccc3ccccc3c2)C(=O)N[C@H](Cc2ccc(NC(C)=O)cc2)C(=O)N[C@@H](CC(C)C)C(=O)N[C@@H](CCCCNC(C)C)C(=O)N2CCC[C@H]2C(=O)N[C@H](C)C(N)=O)cc1 (single isomer, unassigned) [Betide No. 3]
2 out of 7

Entry CC(=O)Nc1ccc(C[C@H](NC(=O)[C@H](CO)NC(=O)C(NC(=O)c2cccnc2)NC(=O)[C@@H](Cc2ccc(Cl)cc2)NC(=O)[C@@H](Cc2ccc3ccccc3c2)NC(C)=O)C(=O)N[C@H](Cc2ccc(NC(C)=O)cc2)C(=O)N[C@@H](CC(C)C)C(=O)N[C@@H](CCCCNC(C)C)C(=O)N2CCC[C@H]2C(=O)N[C@H](C)C(N)=O)cc1 (single isomer, unassigned) [Betide No. 1 isomer (2)] needs its anti-ovulatory activity: rats ovulating out of rats treated filled in; supply it.
6 out of 14

Name the recorded anti-ovulatory activity: rats ovulating out of rats treated of the item CC(=O)Nc1ccc(C[C@H](NC(=O)[C@H](CO)NC(=O)[C@@H](Cc2cccnc2)NC(=O)[C@@H](Cc2ccc(Cl)cc2)NC(=O)C(NC(C)=O)N(C)C(=O)c2ccc3ccccc3c2)C(=O)N[C@H](Cc2ccc(NC(C)=O)cc2)C(=O)N[C@@H](CC(C)C)C(=O)N[C@@H](CCCCNC(C)C)C(=O)N2CCC[C@H]2C(=O)N[C@H](C)C(N)=O)cc1 (single isomer, unassigned) [Betide No. 3C first isomer] in your answer.
2 out of 8

Input CC(=O)Nc1ccc(C[C@H](NC(=O)C(NC=O)NC(=O)[C@@H](Cc2cccnc2)NC(=O)[C@@H](Cc2ccc(Cl)cc2)NC(=O)[C@@H](Cc2ccc3ccccc3c2)NC(C)=O)C(=O)N[C@H](Cc2ccc(NC(C)=O)cc2)C(=O)N[C@@H](CC(C)C)C(=O)N[C@@H](CCCCNC(C)C)C(=O)N2CCC[C@H]2C(=O)N[C@H](C)C(N)=O)cc1 (single isomer, unassigned) [Betide No. 2B first isomer] , output reported anti-ovulatory activity: rats ovulating out of rats treated.
2 out of 8

Give the measured anti-ovulatory activity: rats ovulating out of rats treated for CC(=O)Nc1ccc(C[C@H](NC(=O)C(NC=O)NC(=O)[C@@H](Cc2cccnc2)NC(=O)[C@@H](Cc2ccc(Cl)cc2)NC(=O)[C@@H](Cc2ccc3ccccc3c2)NC(C)=O)C(=O)N[C@H](Cc2ccc(NC(C)=O)cc2)C(=O)N[C@@H](CC(C)C)C(=O)N[C@@H](CCCCNC(C)C)C(=O)N2CCC[C@H]2C(=O)N[C@H](C)C(N)=O)cc1 (single isomer, unassigned) [Betide No. 2B other isomer]
6 out of 8

Source: patent US5807983A
